# System: human PBMCs
# ASSAY_EXPLANATION: CD3/CD28 stimulated IL-2 release NECA reversal assay in human PBMCs
# Assay type: cell-based
# CONDITION_DESCRIPTION: PBMC, 1 uM NECA, 24 hours, IL-2 in culture supernatant
# Procedure: Biological Example—CD3/CD28 Stimulated IL-2 Release NECA Reversal Assay in Human PBMCs Blood is drawn from healthy volunteers using sodium citrate as the anticoagulant (0.3% final concentration). After centrifugation of the blood over Histopaque-1077, PBMCs are collected from the Histopaque/plasma interface and washed twice in PBS (300 g for 10 mins at room temp). […]
PROPERTY_NAME: pIC50
A value of pIC50 is the negative decimal logarithm of a concentration given in moles per litre.

Query: Look up pIC50: Cc1cc(-c2sc(NC(=O)N3CCN(C4COC4)CC3)nc2-c2cccc(C#N)c2)cc(C(F)(F)F)n1
Reply: 7.76
